System: Rattus norvegicus
Assay: Antiallergic activity against anti-egg albumin homocytotropic antibody injected Sprague-Dawley rat assessed as inhibition of passive cutaneous anaphylaxis reaction administered iv at the time of egg albumin antigen challenge or ip 30 mins prior to egg albumin antigen challenge
Type: functional
Settings: read-out: ID50 (the source's name)
readout label: ED50 (mg/kg)
Entry rule: numbers only, all in mg/kg.

Some compounds with known ED50 results, for comparison:
* CCCCCc1cc2c(=O)cc(C(=O)O)[nH]c2c2c(=O)cc(C(=O)O)[nH]c12 | 0.05
* N#Cc1c2c(=O)cc(C(=O)O)[nH]c2c(Cl)c2[nH]c(C(=O)O)cc(=O)c12 | 0.05

Below: the item to evaluate.
ED50 recorded for this compound, `O=C(O)c1cc(=O)c2c(C(F)(F)F)c3c(=O)cc(C(=O)O)[nH]c3c(Cl)c2[nH]1` , is 5
